Origin of values: patent US8653092B2

# target desc: PI3K delta (Homo sapiens (Human))
# Sequence (O00329 other isoform, or with tags, fused parts or gaps linker GGGGGG): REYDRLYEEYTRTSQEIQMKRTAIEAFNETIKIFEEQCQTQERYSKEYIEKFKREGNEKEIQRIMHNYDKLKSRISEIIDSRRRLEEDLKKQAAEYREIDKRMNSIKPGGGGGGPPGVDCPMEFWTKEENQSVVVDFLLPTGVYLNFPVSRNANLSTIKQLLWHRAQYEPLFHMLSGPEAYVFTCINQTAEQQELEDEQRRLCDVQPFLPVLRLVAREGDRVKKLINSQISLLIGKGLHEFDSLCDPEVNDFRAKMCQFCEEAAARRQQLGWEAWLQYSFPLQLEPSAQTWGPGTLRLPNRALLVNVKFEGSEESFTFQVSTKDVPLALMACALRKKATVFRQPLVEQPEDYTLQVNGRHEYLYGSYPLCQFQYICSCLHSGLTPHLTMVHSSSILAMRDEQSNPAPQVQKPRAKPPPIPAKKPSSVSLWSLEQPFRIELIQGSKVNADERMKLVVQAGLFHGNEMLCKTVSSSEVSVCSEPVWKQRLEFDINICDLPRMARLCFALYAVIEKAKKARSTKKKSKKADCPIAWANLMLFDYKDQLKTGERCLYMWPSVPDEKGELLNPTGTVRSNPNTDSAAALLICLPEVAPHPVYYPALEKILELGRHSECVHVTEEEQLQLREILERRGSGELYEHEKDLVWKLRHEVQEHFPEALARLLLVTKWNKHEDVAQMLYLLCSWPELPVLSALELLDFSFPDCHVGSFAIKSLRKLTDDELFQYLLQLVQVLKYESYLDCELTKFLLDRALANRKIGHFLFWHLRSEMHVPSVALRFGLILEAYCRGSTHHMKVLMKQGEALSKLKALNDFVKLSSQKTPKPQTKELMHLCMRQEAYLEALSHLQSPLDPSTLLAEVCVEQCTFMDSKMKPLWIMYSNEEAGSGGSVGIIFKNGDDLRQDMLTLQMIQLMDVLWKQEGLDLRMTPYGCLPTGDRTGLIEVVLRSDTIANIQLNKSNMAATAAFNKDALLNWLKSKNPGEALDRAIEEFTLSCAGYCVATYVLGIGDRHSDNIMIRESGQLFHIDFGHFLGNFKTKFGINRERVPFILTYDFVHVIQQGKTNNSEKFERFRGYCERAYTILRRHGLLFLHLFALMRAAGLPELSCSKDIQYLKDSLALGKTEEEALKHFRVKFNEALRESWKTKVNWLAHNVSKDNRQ
# test summary: Enzymatic PI3K delta isoform inhibition (lipid kinase, Kinase-Glo luminescence)
# Type: biochemical
# condition description: enzymatic assay
IC50 listing for selected compounds.
Field: numeric (µM). Do not append units.

[[record]]
compound = "COc1ncc(N2CCc3ncnc(O[C@H]4CCN(C(=O)C5CC(OC)C5)C4)c3C2)cc1C (stereo partly shown) [Example 15]"
units_text = "µM"
recorded_measurement = 0.014

[[record]]
compound = "CCC(=O)N1CC[C@H](Oc2ncnc3c2CN(c2cnc(OC)c(OC)c2)CC3)C1 [Example 4]"
units_text = "µM"
recorded_measurement = 0.033

[[record]]
compound = "COc1ncc(N2CCc3ncnc(O[C@H]4CCN(C(=O)c5ccoc5)C4)c3C2)cc1C [Example 11]"
units_text = "µM"
recorded_measurement = 0.011


API: the following record is the query input.
// recorded IC50 for COc1ncc(N2CCc3ncnc(N[C@H]4CCN(C(=O)C5CCOC(C)(C)C5)C4)c3C2)cc1C (stereo partly shown) [Example 80] : 0.016

====

# target desc: PI3K delta (Homo sapiens (Human))
# test summary: Enzymatic PI3K delta isoform inhibition (lipid kinase, Kinase-Glo luminescence)
# Assay type: biochemical
# condition description: enzymatic assay
readout: IC50 (nM)
Field: numeric (nM). Do not append units.

Example compounds with recorded IC50:
[[record]]
compound = "COc1ncc(N2CCc3ncnc(N[C@H]4CCN(C(=O)C5CCOCC5)C4)c3C2)cc1Cl"
recorded_measurement = 3

[[record]]
compound = "COc1ncc(N2CCc3ncnc(O[C@H]4CCN(C(=O)c5oc(C)nc5C)C4)c3C2)cc1C(F)(F)F"
recorded_measurement = 6

[[record]]
compound = "COc1ncc(N2CCc3ncnc(O[C@H]4CCN(C(=O)c5cnn(C)c5)C4)c3C2)cc1C#N"
recorded_measurement = 25


Hey, PI3K delta (Homo sapiens (Human)) data for COc1ncc(N2CCc3ncnc(N[C@H]4CCN(C(=O)[C@H]5CC[C@H](OC)CC5)C4)c3C2)cc1C(F)(F)F (single isomer, unassigned) : IC50 came out at 4

Hey, PI3K delta (Homo sapiens (Human)) data for `COc1ncc(N2CCc3ncnc(N[C@H]4CCN(C(=O)c5cn(C)cn5)C4)c3C2)cc1C` : IC50 came out at 44

Hey, PI3K delta (Homo sapiens (Human)) data for `O=C(C1CCOCC1)N1CC[C@H](Nc2ncnc3c2CN(c2cncc(C(F)(F)F)c2)CC3)C1` : IC50 came out at 9

Hey, PI3K delta (Homo sapiens (Human)) data for `COc1ncc(N2CCc3ncnc(O[C@H]4CCN(C(=O)c5cnco5)C4)c3C2)cc1C` : IC50 came out at 12

====

# target desc: PI3K alpha (Homo sapiens (Human), UniProt P42336)
# Sequence (P42336 other isoform, or with tags, fused parts or gaps): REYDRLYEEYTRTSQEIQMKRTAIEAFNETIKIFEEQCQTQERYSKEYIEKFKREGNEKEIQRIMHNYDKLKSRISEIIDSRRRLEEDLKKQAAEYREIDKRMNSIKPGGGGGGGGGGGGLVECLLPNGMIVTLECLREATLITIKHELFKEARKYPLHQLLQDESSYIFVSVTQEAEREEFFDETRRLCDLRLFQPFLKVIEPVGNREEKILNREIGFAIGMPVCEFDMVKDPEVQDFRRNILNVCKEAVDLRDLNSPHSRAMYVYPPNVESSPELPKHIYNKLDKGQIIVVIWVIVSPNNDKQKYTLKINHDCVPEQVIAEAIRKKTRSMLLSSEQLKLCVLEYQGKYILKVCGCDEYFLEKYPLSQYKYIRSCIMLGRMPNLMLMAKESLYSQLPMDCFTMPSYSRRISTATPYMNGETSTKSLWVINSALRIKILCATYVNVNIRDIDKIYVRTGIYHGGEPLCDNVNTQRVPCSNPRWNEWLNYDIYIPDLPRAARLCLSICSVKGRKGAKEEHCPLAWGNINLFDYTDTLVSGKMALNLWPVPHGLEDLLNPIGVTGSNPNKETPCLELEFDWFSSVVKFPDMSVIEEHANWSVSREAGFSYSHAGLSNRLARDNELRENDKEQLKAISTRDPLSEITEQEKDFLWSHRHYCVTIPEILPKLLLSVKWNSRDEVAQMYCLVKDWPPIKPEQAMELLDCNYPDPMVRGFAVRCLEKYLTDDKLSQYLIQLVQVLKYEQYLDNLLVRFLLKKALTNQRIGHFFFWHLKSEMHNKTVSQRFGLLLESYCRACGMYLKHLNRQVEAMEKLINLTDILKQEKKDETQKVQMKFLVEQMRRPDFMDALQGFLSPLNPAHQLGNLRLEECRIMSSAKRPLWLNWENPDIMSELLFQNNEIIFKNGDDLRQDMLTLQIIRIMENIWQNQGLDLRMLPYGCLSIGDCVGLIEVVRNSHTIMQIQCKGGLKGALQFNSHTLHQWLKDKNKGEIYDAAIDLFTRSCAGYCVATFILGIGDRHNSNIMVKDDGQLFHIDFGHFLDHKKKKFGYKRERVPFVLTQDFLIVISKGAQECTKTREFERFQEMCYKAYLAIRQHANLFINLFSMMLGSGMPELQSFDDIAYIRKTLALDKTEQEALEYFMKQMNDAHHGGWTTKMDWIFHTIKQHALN
# test summary: Enzymatic PI3K alpha isoform inhibition (lipid kinase, Kinase-Glo luminescence)
# Format: biochemical
# condition description: enzymatic assay
pIC50: −log10 of the molar value.
Rule: pIC50 of 6 or more gives Condition met; anything lower gives Condition not met.

[[record]]
compound = "COc1ncc(N2CCc3ncnc(O[C@H]4CCN(C(=O)CC(C)(C)C)C4)c3C2)cc1C(F)(F)F"
answer_label = "Condition met"

[[record]]
compound = "COc1ncc(N2CCc3ncnc(O[C@H]4CCN(C(=O)c5oc(C)nc5C)C4)c3C2)cc1C(F)(F)F"
answer_label = "Condition met"

[[record]]
compound = "COc1ncc(N2CCc3ncnc(O[C@H]4CCN(C(=O)C5CCOCC5)C4)c3C2)cc1F"
answer_label = "Condition not met"

[[record]]
compound = "COc1ncc(N2CCc3ncnc(N[C@H]4CCN(C(=O)c5cnco5)C4)c3C2)cc1C"
answer_label = "Condition met"


# evaluate next
**Q:** Is reported pIC50 greater than or equal to 6 here: `COc1ncc(N2CCc3ncnc(OC4CN(C(=O)C5CCOCC5)C4)c3C2)cc1C(F)(F)F`
**A:** Condition not met
